B1: glmS ribozyme (parent)
chain: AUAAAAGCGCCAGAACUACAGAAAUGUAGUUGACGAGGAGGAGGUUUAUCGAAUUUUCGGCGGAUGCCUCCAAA

# Variants of: B1
# protocolSummary: self-cleavage kobs at 40 uM GlcN6P; higher = faster cleavage; RNA array
# details: with glucosamine-6-phosphate
Fewer inactive variants are shown than the library holds.
In this section, each of the variants is paired with its reported self-cleavage kobs at 40 uM GlcN6P.
measurementType: self-cleavage kobs at 40 uM GlcN6P

1. G13C A15C G51U : < 1e-05 s⁻¹
2. G13A U57C : < 1e-05 s⁻¹
3. G41U U65C : < 1e-05 s⁻¹
4. U47A U54C : 0.000843 s⁻¹
5. A42G C50U G63U C71G : < 1e-05 s⁻¹
6. G44U C70U : < 1e-05 s⁻¹
7. G44A G51A U65G C67G : < 1e-05 s⁻¹
8. U55A C70U : 0.00118 s⁻¹
9. U46G U47G : 6.82e-05 s⁻¹
10. C10U G37U G43U A52G G60U : < 1e-05 s⁻¹
11. U2A A3U G32A : 7.12e-05 s⁻¹
